System: HepG2
Assay: Antiproliferative activity against human HepG2 cells by MTT assay
Type: functional, cell-based
measured_quantity: IC50

Recorded results for 2 compounds are shown here.
O=c1c2oc3nc(-c4cccs4)cc(C(F)(F)F)c3c2ncn1/N=C/c1ccc(Br)cc1: > 220 µg/mL
Nc1c(C(=O)N/N=C/c2ccccc2)oc2nc(-c3ccccc3)cc(C(F)(F)F)c12: 13.1 µM

Record O=c1c2oc3nc(-c4cccs4)cc(C(F)(F)F)c3c2ncn1/N=C/c1ccc(Cl)cc1 , field IC50: > 220 µg/mL

Record CCn1cnc2c(oc3nc(-c4cccs4)cc(C(F)(F)F)c32)c1=O , field IC50: > 220 µg/mL

Record CCn1cnc2c(oc3nc(-c4ccccc4)cc(C(F)(F)F)c32)c1=O , field IC50: > 220 µg/mL

Record Cc1nc2c(oc3nc(-c4cccs4)cc(C(F)(F)F)c32)c(=O)n1C1CCCC1 , field IC50: > 220 µg/mL

Record CCCn1c(C)nc2c(oc3nc(-c4cccs4)cc(C(F)(F)F)c32)c1=O , field IC50: 22.8 µM

Record Nc1c(C(=O)N/N=C/c2ccc(Br)cc2)oc2nc(-c3ccccc3)cc(C(F)(F)F)c12 , field IC50: 19.9 µM

Record Cc1ccc(/C=N/n2cnc3c(oc4nc(-c5ccccc5)cc(C(F)(F)F)c43)c2=O)cc1 , field IC50: > 220 µg/mL

Record Cn1cnc2c(oc3nc(-c4cccs4)cc(C(F)(F)F)c32)c1=O , field IC50: > 220 µg/mL

Record CCNC(=O)c1oc2nc(-c3ccccc3)cc(C(F)(F)F)c2c1N , field IC50: 42.8 µM

Record O=c1c2oc3nc(-c4ccccc4)cc(C(F)(F)F)c3c2ncn1/N=C/c1ccc(Br)cc1 , field IC50: > 220 µg/mL

Record Cn1cnc2c(oc3nc(-c4ccccc4)cc(C(F)(F)F)c32)c1=O , field IC50: 221 µM

Record Cc1ccc(/C=N/n2cnc3c(oc4nc(-c5cccs5)cc(C(F)(F)F)c43)c2=O)cc1 , field IC50: > 220 µg/mL

Record CCNC(=O)c1oc2nc(-c3cccs3)cc(C(F)(F)F)c2c1N , field IC50: 12.1 µM

Record CCCn1cnc2c(oc3nc(-c4ccccc4)cc(C(F)(F)F)c32)c1=O , field IC50: > 220 µg/mL

Record CCCn1c(C)nc2c(oc3nc(-c4ccccc4)cc(C(F)(F)F)c32)c1=O , field IC50: > 220 µg/mL

Record Cc1nc2c(oc3nc(-c4ccccc4)cc(C(F)(F)F)c32)c(=O)n1C , field IC50: > 220 µg/mL

Record O=c1c2oc3nc(-c4cccs4)cc(C(F)(F)F)c3c2ncn1C1CCCC1 , field IC50: 49.8 µM

Record CNC(=O)c1oc2nc(-c3cccs3)cc(C(F)(F)F)c2c1N , field IC50: 12.3 µM

Record CCCn1cnc2c(oc3nc(-c4cccs4)cc(C(F)(F)F)c32)c1=O , field IC50: > 220 µg/mL

Record Nc1c(C(=O)N/N=C/c2ccc(Cl)cc2)oc2nc(-c3cccs3)cc(C(F)(F)F)c12 , field IC50: 8.1 µM

----------
Test system: HEK293
Assay: Antiproliferative activity against human HEK293 cells by MTT assay
Format: cell-based
measured_quantity: IC50

Record O=c1c2oc3nc(-c4ccccc4)cc(C(F)(F)F)c3c2ncn1/N=C/c1ccc(Cl)cc1 , field IC50: > 220 µg/mL

Record Cn1cnc2c(oc3nc(-c4cccs4)cc(C(F)(F)F)c32)c1=O , field IC50: > 220 µg/mL

Record Cc1ccc(/C=N/n2cnc3c(oc4nc(-c5ccccc5)cc(C(F)(F)F)c43)c2=O)cc1 , field IC50: > 220 µg/mL

Record Cc1ccc(/C=N/NC(=O)c2oc3nc(-c4cccs4)cc(C(F)(F)F)c3c2N)cc1 , field IC50: 78 µM

Record CCNC(=O)c1oc2nc(-c3ccccc3)cc(C(F)(F)F)c2c1N , field IC50: 70 µM

----------
System: HepG2
Assay: Antiproliferative activity against human HepG2 cells by MTT assay
Type: functional, cell-based
measured_quantity: IC50

Recorded results for 4 compounds are shown here.
CNC(=O)c1oc2nc(-c3ccccc3)cc(C(F)(F)F)c2c1N: 41.2 µM
Nc1c(C(=O)N/N=C/c2ccc(Br)cc2)oc2nc(-c3cccs3)cc(C(F)(F)F)c12: 6.1 µM
Cc1ccc(/C=N/NC(=O)c2oc3nc(-c4ccccc4)cc(C(F)(F)F)c3c2N)cc1: 8.9 µM
CCn1c(C)nc2c(oc3nc(-c4cccs4)cc(C(F)(F)F)c32)c1=O: > 220 µg/mL

Record O=c1c2oc3nc(-c4ccccc4)cc(C(F)(F)F)c3c2ncn1/N=C/c1ccccc1 , field IC50: > 220 µg/mL

----------
System: HEK293
Assay: Antiproliferative activity against human HEK293 cells by MTT assay
Assay type: cell-based
measured_quantity: IC50

O=c1c2oc3nc(-c4ccccc4)cc(C(F)(F)F)c3c2ncn1/N=C/c1ccc(Br)cc1: > 220 µg/mL
Nc1c(C(=O)N/N=C/c2ccc(Cl)cc2)oc2nc(-c3cccs3)cc(C(F)(F)F)c12: 83 µM
Cn1cnc2c(oc3nc(-c4ccccc4)cc(C(F)(F)F)c32)c1=O: > 220 µg/mL
O=c1c2oc3nc(-c4cccs4)cc(C(F)(F)F)c3c2ncn1/N=C/c1ccccc1: 90 µM

Record Cc1ccc(/C=N/NC(=O)c2oc3nc(-c4ccccc4)cc(C(F)(F)F)c3c2N)cc1 , field IC50: 69 µM
